// values below are reported abundance fitness
B1: Cyclin-F, residues 28 to 80; numbered along this chain, P41002 (parent)
chain: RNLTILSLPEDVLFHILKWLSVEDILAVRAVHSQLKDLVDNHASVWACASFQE

Variants of: B1
protocol text: abundance fitness (aPCA) (normalised: wild type 0, dead -1); higher = more abundant; growth selection in yeast, the domain comes from the species named
measurement conditions: Homo sapiens

# sequence text, abundance fitness
data = [
    ("RNLTILTLPEDVLFHILKWLSVEDILAVRAVHSQLKDLVDNHASVWACASFQE [S7T]", -0.381),
    ("RNLTILSLVEDVLFHILKWLSVEDILAVRAVHSQLKDLVDNHASVWACASFQE [P9V]", -0.59),
    ("RNLTILSLPEDVLFHILKWLSVEDILAVRAVHSQLKDLVDNHATVWACASFQE [S44T]", -0.307),
    ("RNLEILSLPEDVLFHILKWLSVEDILAVRAVHSQLKDLVDNHASVWACASFQE [T4E]", -0.605),
    ("RNLTILSLPEDVLFHILKWLSVEDILAVRPVHSQLKDLVDNHASVWACASFQE [A30P]", -0.844),
    ("RNLTILSLPEDVLFHILKWLSVEDILAVQAVHSQLKDLVDNHASVWACASFQE [R29Q]", -0.801),
    ("RNLTILSQPEDVLFHILKWLSVEDILAVRAVHSQLKDLVDNHASVWACASFQE [L8Q]", -0.925),
    ("RNLTILSLPEDVLFHILKWLSVEDILAVRAVHSQLKDLVDNHASFWACASFQE [V45F]", -0.016),
    ("RNLTILSLCEDVLFHILKWLSVEDILAVRAVHSQLKDLVDNHASVWACASFQE [P9C]", -0.676),
    ("RNLTILSLPEDVLFHILKWLSVWDILAVRAVHSQLKDLVDNHASVWACASFQE [E23W]", -0.577),
    ("RNLTILSLPEDDLFHILKWLSVEDILAVRAVHSQLKDLVDNHASVWACASFQE [V12D]", -0.816),
]
